Assay: Human HepG2 cell viability assay in 384 well format
Type: toxicity, cell-based
Parameters: dose 125 nL, time 70.5 hour; concentration not given beside the values
Conditions: HepG2 cells, read-out: Inhibition
# cytotoxicity at 70.5 h values compiled below
The reply should contain only the number, in %.

Worked examples, 3 molecules total:
MOLECULE: CC(=O)N1CCC2(CCN(C(=O)c3ccc(F)c(C(F)(F)F)c3)C2)C1 (centres undefined)
ENDPOINT_UNIT: %
cytotoxicity at 70.5 h: -12.8

MOLECULE: Cc1nc(CN2CCC3(CC2)CC(c2cccnc2)C(=O)N3C)cs1 (centres undefined)
ENDPOINT_UNIT: %
cytotoxicity at 70.5 h: -3.5

MOLECULE: Cn1ccc2c(C(=O)N3CCN(C(=O)C4CCCC4)CC3)cccc21
ENDPOINT_UNIT: %
cytotoxicity at 70.5 h: -5.41

Please examine the following record next.
Input: Identify the reported cytotoxicity at 70.5 h for the following entry. Cc1nccn1CCNC(=O)C1(C)CC(c2ccccc2)=NO1 (centres undefined)
Output: -3.18

====

Assay: Human HepG2 cell viability assay in 384 well format
Format: toxicity, cell-based
Design: dose 125 nL, time 70.5 hour; concentration not given beside the values
Settings: HepG2 cells, read-out: Inhibition
PROPERTY_NAME: cytotoxicity at 70.5 h (%)
Answer in %, number only, no unit symbol.

// below: answered compounds
COMPOUND: COCCN1CCC(CNC(=O)C2(c3cc(C)cc(C)c3)CC2)CC1
PROPERTY_NAME: cytotoxicity at 70.5 h
REPORTED: -1.48
//
COMPOUND: CC(C)N1CCO[C@H]2CN(C(=O)c3ccncc3F)C[C@H]21
PROPERTY_NAME: cytotoxicity at 70.5 h
REPORTED: -4.09
//
COMPOUND: CSCc1cc(F)ccc1CNC(=O)N1CCCC1
PROPERTY_NAME: cytotoxicity at 70.5 h
REPORTED: -4.58
//
COMPOUND: O=C(CN(Cc1cccs1)C1CCS(=O)(=O)C1)NCC1CCCCC1 (stereo not given)
PROPERTY_NAME: cytotoxicity at 70.5 h
REPORTED: -1.81
//
COMPOUND: CN1CCCN(C[C@@H]2CN(C(=O)CCc3cn[nH]c3)C[C@@H]2CO)CC1
PROPERTY_NAME: cytotoxicity at 70.5 h
REPORTED: -3.81

Input: Answer with the recorded cytotoxicity at 70.5 h of CN(C)c1nccc(CNC(=O)NC(C)(C)C)n1 only.
Output: -0.141

Input: Entry CC1CCCN(CC(=O)N2CCC(c3ncc4c(n3)CCNC4)CC2)C1 (stereo not given) needs its cytotoxicity at 70.5 h filled in; supply it.
Output: 1.79

====

# maps each entry to its cytotoxicity at 70.5 h
Assay: Human HepG2 cell viability assay in 384 well format
Assay type: toxicity, cell-based
Parameters: dose 125 nL, time 70.5 hour; concentration not given beside the values
Settings: HepG2 cells, read-out: Inhibition
Could you give me the number in %? Just the number is fine.

Sample answers from the record:
MOLECULE: COCCn1cc(NC(=O)NCC(C)N2CCOCC2)cn1 (stereo not drawn)
ENDPOINT_UNIT: %
REPORTED: -13.2
//
MOLECULE: COc1ccccc1-c1noc(CN2CCCC2Cn2cccn2)n1 (stereo not drawn)
ENDPOINT_UNIT: %
REPORTED: 12.5
//
MOLECULE: O=C(c1cnccn1)N1CCc2c(COCC3CC3)cncc2C1
ENDPOINT_UNIT: %
REPORTED: -7.37

Input: Answer with the recorded cytotoxicity at 70.5 h for the molecule listed here: CC(=O)N1CC=C(n2c(=O)[nH]c3ccccc32)CC1
Output: -5.58

Input: Using known records, supply cytotoxicity at 70.5 h for COCCNC(=O)c1cc2c(s1)CCN2C(=O)c1ccccc1
Output: 6.46

Values from ChEMBL document CHEMBL3507680
